# systemName: PD-1/PD-L1 (Homo sapiens, UniProt Q9NZQ7)
# Construct: made in house; host or cells: HEK293T
# Sequence (Q9NZQ7 with tags, fused parts or gaps): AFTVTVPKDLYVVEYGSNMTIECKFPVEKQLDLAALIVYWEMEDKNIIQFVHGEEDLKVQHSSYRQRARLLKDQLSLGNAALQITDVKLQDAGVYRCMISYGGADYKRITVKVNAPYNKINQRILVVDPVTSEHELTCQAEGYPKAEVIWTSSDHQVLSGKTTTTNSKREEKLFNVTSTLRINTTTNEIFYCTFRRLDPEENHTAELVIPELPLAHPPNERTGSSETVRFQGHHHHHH
# testProtocol: PD-1/PD-L1 Homogenous Time-Resolved Fluorescence (HTRF) binding assay
# measurementSetup: PD-L1-His 10 nM, PD-1-Ig 20 nM; value given as range class; read-out: Range or IC50
Entries and their IC50

compound="Cc1c(COc2cc(OCc3cncc(C#N)c3)c(CN(C)C3(C(=O)O)CC3)cc2Cl)cccc1-c1cccc(OCCCN2CC[C@@H](O)C2)c1C [Example 4134]" systemname="PD-1/PD-L1 (Homo sapiens, UniProt Q9NZQ7)" attributemeasured=IC50 assayresult="0.21 to 10 nM"
compound="Cc1cc(OCc2cccc(-c3cccc(OCCCN4CC[C@@H](O)C4)c3C)c2C)cc(OCc2cncc(C#N)c2)c1CN[C@@](C)(CO)C(=O)O [Example 4091]" systemname="PD-1/PD-L1 (Homo sapiens, UniProt Q9NZQ7)" attributemeasured=IC50 assayresult="0.21 to 10 nM"
compound="CNC1CCN(CCCOc2cccc(-c3cccc(COc4cc(OCc5cncc(C#N)c5)c(CN5CCCC[C@H]5C(=O)O)cc4Cl)c3C)c2C)CC1 [Example 2269]" systemname="PD-1/PD-L1 (Homo sapiens, UniProt Q9NZQ7)" attributemeasured=IC50 assayresult="0.21 to 10 nM"
compound="Cc1c(OCCCN2CC[C@@H](O)C2)cccc1-c1cccc(COc2cc(OCC3CC3)c(CNC(CO)CO)cc2Cl)c1Cl [Example 2319]" systemname="PD-1/PD-L1 (Homo sapiens, UniProt Q9NZQ7)" attributemeasured=IC50 assayresult="0.21 to 10 nM"
compound="CCNC(=O)c1cccc(-c2cccc(COc3cc(OCc4cncc(C#N)c4)c(CN4CCCC[C@H]4C(=O)O)cc3Cl)c2C)c1C [Example 4006]" systemname="PD-1/PD-L1 (Homo sapiens, UniProt Q9NZQ7)" attributemeasured=IC50 assayresult="10 to 100 nM"

Could you tell me which IC50 is on file for Cc1c(COc2cc(OCc3cc(Cl)cc(Cl)c3)c(CNC(C)(CO)CO)cc2Cl)cccc1-c1cccc(OCCCN2CC[C@@H](O)C2)c1C [Example 4504] ? 0.21 to 10 nM
